- ASSAY_SYSTEM: hNPFF1R (Homo sapiens, UniProt Q9GZQ6)
- Sequence (Q9GZQ6 whole entry): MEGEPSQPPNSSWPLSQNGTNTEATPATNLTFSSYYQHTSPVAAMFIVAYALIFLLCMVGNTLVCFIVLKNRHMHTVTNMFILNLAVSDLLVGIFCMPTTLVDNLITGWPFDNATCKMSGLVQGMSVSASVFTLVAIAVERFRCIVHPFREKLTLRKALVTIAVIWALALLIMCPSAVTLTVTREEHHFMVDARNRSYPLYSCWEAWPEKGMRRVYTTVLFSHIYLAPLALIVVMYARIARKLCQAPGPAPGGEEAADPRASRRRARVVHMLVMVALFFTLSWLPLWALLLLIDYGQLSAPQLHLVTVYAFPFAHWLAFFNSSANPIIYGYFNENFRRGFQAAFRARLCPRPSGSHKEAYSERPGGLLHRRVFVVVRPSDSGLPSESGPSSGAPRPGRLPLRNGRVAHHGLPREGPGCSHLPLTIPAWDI
- ASSAY_PROTOCOL: IP accumulation assay, wt hNPFF1R in COS-7 cells with chimeric G-protein
- Assay type: cell-based
- EXPERIMENTAL_PARAMETERS: IP accumulation assays, wt NPFF1R
READOUT_TYPE: functional behaviour at NPFF1R

Exercise: Answer with the recorded functional behaviour at NPFF1R of N=C(N)N/N=C/c1ccc(Br)c(Br)c1 only.
Solution: partial agonists

Exercise: Answer with the recorded functional behaviour at NPFF1R of N=C(N)N/N=C/c1ccc(Cl)c(C(F)(F)F)c1 only.
Solution: partial agonists
